Assay System: T1, HLA-A*02:01 (peptide-receptive MHC class I monomer after UV-ligand exchange) (human)
T1 construct: Monomers made with a UV-sensitive peptide that is cleaved by UV and exchanged for the test peptide; captured on streptavidin plates; also called MHC molecules
Assay Protocol: UV-ligand exchange + anti-b2m ELISA; exchange yield grade: + >=10%, ++ >=20%, +++ >=50, ++++ >=75%
Value Type: peptide exchange yield

In the examples that follow, each entry is paired with its recorded peptide exchange yield.
# Binder, Reported Value
data = [
    ("SIMDYVVFV [peptide SIMDYVVFV (SEQ ID NO: 6)]", "≥ 75%"),
    ("FLFPVYPLI [peptide FLFPVYPLI (SEQ ID NO: 68)]", "50 to 75%"),
    ("SLIGLDLSSV [peptide SLIGLDLSSV (SEQ ID NO: 48)]", "50 to 75%"),
]

Data request, read-out peptide exchange yield, for GLLEALLKI [peptide GLLEALLKI (SEQ ID NO: 47)]
50 to 75%

Hey, just so you know, these numbers are from patent US20170096461A1.
